# TARGET: FLAG-tagged Ang2 mutant A449 (alanine) (human) (UniProt O15123)
# METHOD SUMMARY: ELISA, scFv coated, FLAG-tagged mutant Ang2, anti-FLAG-HRP
Would you mind telling me the reported Relative binding (%) with Mutant Ang2 compared to the binding with native Ang2 of each entry?
Quick reminder: number only, in %, skip the unit.

-- ask Which Relative binding (%) with Mutant Ang2 compared to the binding with native Ang2 value belongs to SAIT-ANG2-AB-4-F5 (scFv form) (scFv, V domains shown) VH: EVQLLESGGGLVQPGGSLRLSCAASGFTFSDYDMSWVRQAPGKGLEWVSSISHGDSNKYYADSVKGRFTISRDNSKNTLYLQMNSLRAEDTAVYYCAKSSGIQESPPTYYYYGMDVWGQGTLVTVSS VL: QSVLTQPPSASGTPGQRVTISCSGSSSNIGSNAVNWYQQLPGTAPKLLIYADSNRPSGVPDRFSGSKSGTSASLAISGLRSEDEADYYCGSWDYSLSGYVFGGGTKLTVLG ?
-- reply 14

-- ask Follow-up item: SAIT-ANG2-AB-3-D3 (scFv form) (scFv, V domains shown) VH: EVQLLESGGGLVQPGGSLRLSCAASGFTFSDYDMSWVRQAPGKGLEWVSGISSDDGNTYYADSVKGRFTISRDNSKNTLYLQMNSLRAEDTAVYYCARPTIDKYTLRGYYSYGMDVWGQGTLVTVSS VL: QSVLTQPPSASGTPGQRVTISCTGSSSNIGSNYVSWYQQLPGTAPKLLIYSDNKRPSGVPDRFSGSKSGTSASLAISGLRSEDEADYYCGTWDDSLNGYVFGGGTKLTVLG
-- reply 101

-- ask Input SAIT-ANG2-AB-4-F11 (scFv form) (scFv, V domains shown) VH: EVQLLESGGGLVQTGGSLRLSCAASGFTFSDYAMSWVRQAPGKGLEWVSSIYPDDGNTYYADSVKGRFTISRDNSKNTLYLQMNSLRAEDTAVYYCAKHPVRLNLHPMYYYYGMDVWGQGTLVTVSS VL: QSVLTQPPSASGTPGQRVTISCTGSSSNIGNNAVSWYQQLPGTAPKLLIYSDSQRPSGVPDRFSGSKSGTSASLAISGLRSEDEADYYCATWDYSLSAYVFGGGTKLTVLG
-- reply 16.7

-- ask Consider next the binder SAIT-ANG2-AB-4-C11 (scFv form) (scFv, V domains shown) VH: EVQLLESGGGLVQPGGSLRLSCAASGFTFSDYAMSWVRQAPGKGLEWVSSIYPDDGNTYYADSVKGRFTISRDNSKNTLYLQMNSLRAEDTAVYYCARHTSHHTSIDGYYYYGMDGWGQGTLVTVSS VL: QSVLTQPPSASGTPGQRVTISCTGSSSNIGNNDVSWYQQLPGTAPKLLIYSDSKRPSGVPDRFSGSKSGTSASLAISGLRSEDEADYYCGSWDYSLSGYVFGGGTKLTVLG in the same way.
-- reply 4.8

-- ask And SAIT-ANG2-AB-2-E6 (scFv form) (scFv, V domains shown) VH: EVQLLESGGGLVQTGGSLRLSCAASGFTFSDYAMSWVRQAPGKGLEWVSAIYPDSGNKYYADSVKGRFTISRDNSKNTLYLQMNSLRAEDTAVYYCARHSSDPKVKSGYYDDGMDVWGQGTLVAVSS VL: QSVLTQPPSASGTPGQRVTISCSGSSSNIGNNAVNWYQQLPGTAPKLLIYADSNRPSGVPDRFSGSKSGTSASLAISGLRSEDEADYYCGSWDYSLSGYVFGGGTKLTVLG ?
-- reply 3.3

-- ask // query: SAIT-ANG2-AB-7-C9 (scFv form) (scFv, V domains shown) VH: EVQLLESGGGLVQPGGSLRLSCAASGFTFSNYAMSWVRQAPGKGLEWVSAISSGGGNIYYADSVKGRFTISRDNSKNTLYLQMNSLRAEDTAVYYCAKSGIQPSPPSMSSAYAMDVWGQGTLVTVSS VL: QSVLTQPPSASGTPGQRVTISCSGSSSNIGNNDVYWYQQLPGTAPKLLIYANSHRPSGVPDRFSGSKSGTSASLAISGLRSEDEADYYCGTWDYSLSGYVFGGGTKLTVLG
-- reply 14.5
